experimental.protocol: Study M04-710 pharmacokinetics, multiple-dose escalation, non-hematologic malignancies
Format: in vivo, human
run.parameters: human, plasma, oral, 0.25 mg/kg, Study Day 15; 0.25 mg/kg; mean ± SD
property.label: Cmax (ng/mL)
Please state the figure in ng/mL; there is no need to write the unit.

query: Which Cmax is listed for Cc1ccc(F)c(NC(=O)Nc2ccc(-c3cccc4[nH]nc(N)c34)cc2)c1 ?
result: 310

###

experimental.protocol: Study M04-710 pharmacokinetics, multiple-dose escalation, non-hematologic malignancies
Type: in vivo, human
run.parameters: human, plasma, oral, 0.1 mg/kg; Study Day 1; 0.10 mg/kg; mean ± SD
property.label: Cmax

query: Which Cmax is listed for Cc1ccc(F)c(NC(=O)Nc2ccc(-c3cccc4[nH]nc(N)c34)cc2)c1 ?
result: 120 ng/mL
